# assay method text: qHTS profiling of the MIPE4 collection as inhibitors of Plasmodium falciparum (HB3) proliferation (AID 743347);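 note: plate controls were DMSO vehicle wells for no effect and artemisinin wells for full effect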
# assay conditions: P. falciparum HB3 in erythrocytes, SYBR Green DNA, 72 h; at 28.5 µM (top of the series) unless noted
# growth, % of control annotations

{"molecule": "CC1=C(C(=O)OC(C)C)C(c2cccc([N+](=O)[O-])c2)C(C(=O)OC2CN(C(c3ccccc3)c3ccccc3)C2)=C(N)N1 (centres undefined)", "growth, % of control [%]": 9.79}
{"molecule": "CC[C@@H](CO)NCCN[C@@H](CC)CO", "growth, % of control [%]": 106}
{"molecule": "COc1ccc(CN2CCN(C(c3ccc(F)cc3)c3ccc(F)cc3)CC2)c(OC)c1OC", "growth, % of control [%]": 6.18}

====

# assay method text: Cell Viability - LYMP2-006 (AID 978);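 note: cells exposed to compound for 24 hours; nearly all actives have a fitted effect of over 60% in size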
# assay conditions: LYMP2-006 lymphoblastoid cell viability, qHTS; series mostly up to 92.2 µM
Inconclusive results are not listed. Calls of active or inactive are those of the source. Calls come from the whole dose curve; as a rule, active = well fitted cell-killing curve with a large enough effect; inconclusive = small, poorly fitted or top-dose-only effect; inactive = flat fitted curve, though single readings scatter.
Classes used: T (active), F (inactive)

{"compound string": "Nc1ccc(C(=O)O)cc1", "label class": "F"}
{"compound string": "O=C(O)CCCCC(=O)O", "label class": "F"}
{"compound string": "C=CCc1ccc(O)c(OC)c1", "label class": "F"}
{"compound string": "CC(=O)O[C@]1(C(C)=O)CC[C@H]2[C@@H]3C[C@H](C)C4=CC(=O)CC[C@]4(C)[C@H]3CC[C@@]21C", "label class": "T"}
{"compound string": "O=C1OC(c2ccc(O)cc2)(c2ccc(O)cc2)c2ccccc21", "label class": "F"}
{"compound string": "C[C@]12CC[C@@H]3c4ccc(O)cc4CC[C@H]3[C@@H]1CC[C@@H]2O", "label class": "F"}

====

# Test system: CP217
# assay method text: qHTS profiling for inhibitors of Plasmodium falciparum proliferation (AID 504749); note: nearly all actives have a fitted effect of over 60% in size; note: potency is the fitted concentration of half-maximal effect
# assay conditions: P. falciparum in erythrocytes, SYBR Green DNA, 72 h; series mostly up to 28.7 µM
Records with an inconclusive call do not appear. Calls of active or inactive are those of the source. Calls come from the whole dose curve; as a rule, active = well fitted inhibition curve with a large enough effect; inconclusive = small, poorly fitted or top-dose-only effect; inactive = flat fitted curve, though single readings scatter.
measurement type: Potency

{"compound": "O=C(Nc1ccc(Oc2ccc(Cl)cc2)c(Cl)c1)c1cc(I)cc(I)c1O", "result": "0.158 µM (active)"}
{"compound": "CCCCC1=NC2(CCCC2)C(=O)N1Cc1ccc(-c2ccccc2-c2nn[nH]n2)cc1", "result": "inactive"}
{"compound": "CC(C)(C(=O)c1cccnc1)c1cccnc1", "result": "inactive"}
{"compound": "CCOc1ccc(NC(=O)CC(C)O)cc1 (stereo unspecified)", "result": "inactive"}
{"compound": "O=C(Nc1ccc(Cl)c(Cl)c1)C1CC1", "result": "inactive"}
{"compound": "COc1cccc(CCc2ccccc2OCC(CN(C)C)OC(=O)CCC(=O)O)c1 (stereo unspecified)", "result": "7.94 µM (active)"}

====

# Tested on: TAB165
# assay method text: qHTS profiling for inhibitors of Plasmodium falciparum proliferation (AID 504749); note: nearly all actives have a fitted effect of over 60% in size; note: potency is the fitted concentration of half-maximal effect
# assay conditions: P. falciparum in erythrocytes, SYBR Green DNA, 72 h; series mostly up to 28.7 µM
# Procedure: NIH National Institute of Allergy and Infectious Diseases [NIAID] NIH Chemical Genomics Center [NCGC] […] Because mature erythrocytes lack DNA, only Plasmodium-derived DNA is detected. NCGC Assay Protocol Summary: The SYBR Green viability assay was adapted from a method described previously (Plouffe et al., 2008). […] The following morning, fluorescence intensity at 485(14) nm excitation and 535(25) nm emission wavelengths was measured on an EnVision (Perkin Elmer) plate reader. […]
Records with an inconclusive call do not appear. Activity calls are given as the source filed them. Calls come from the whole dose curve; as a rule, active = well fitted inhibition curve with a large enough effect; inconclusive = small, poorly fitted or top-dose-only effect; inactive = flat fitted curve, though single readings scatter.
measurement type: Potency

{"compound": "CC(C)(CO)[C@@H](O)C(=O)NCCCO", "result": "inactive"}
{"compound": "CCN1CCCC1=O", "result": "inactive"}
{"compound": "COc1cc2c(cc1OC)C(C(C(=O)N(CCc1ccc(OC)c(OC)c1OC)CCc1ccc(OC)c(OC)c1OC)c1ccccc1)=NCC2 (stereo unspecified)", "result": "1.26 µM (active)"}
{"compound": "CCN(CC)CCNC(=O)COc1ccc(Cl)cc1", "result": "11.2 µM (active)"}
{"compound": "Cc1cc(N)c2cc(NC(=O)Nc3ccc4nc(C)cc(N)c4c3)ccc2n1", "result": "5.62 µM (active)"}
{"compound": "CC(=O)Oc1ccc(C(=C2CCCCC2)c2ccc(OC(C)=O)cc2)cc1", "result": "inactive"}
{"compound": "CC(C)(C)CC(C)(C)c1ccc(O)c(Cc2ccc(Cl)cc2Cl)c1", "result": "0.794 µM (active)"}
{"compound": "CN(C)/N=N/c1nc[nH]c1C(N)=O", "result": "inactive"}
{"compound": "Cc1c(C(N)=O)cc([N+](=O)[O-])cc1[N+](=O)[O-]", "result": "inactive"}
{"compound": "C[N+]1(CCCCC[N+]2(C)CCCC2)CCCC1", "result": "inactive"}
{"compound": "CCN1CCN(c2cc3c(cc2F)c(=O)c(C(=O)O)cn3C2CC2)CC1", "result": "inactive"}

====

# assay method text: Cell Viability - LYMP2-006 (AID 978);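 note: cells exposed to compound for 24 hours; nearly all actives have a fitted effect of over 60% in size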
# assay conditions: LYMP2-006 lymphoblastoid cell viability, qHTS; series mostly up to 92.2 µM
Inconclusive results are not listed. Activity calls are given as the source filed them. Calls follow the shape of the dose curve; as a rule, active = well fitted cell-killing curve with a large enough effect; inconclusive = small, poorly fitted or top-dose-only effect; inactive = flat fitted curve, though single readings scatter.
Classes used: YES (active), NO (inactive)

{"compound string": "NC(=NCCCCCCN=C(N)/N=C(\\N)Nc1ccc(Cl)cc1)/N=C(\\N)Nc1ccc(Cl)cc1", "label class": "YES"}
{"compound string": "CCCCCCc1ccc(O)cc1O", "label class": "NO"}
{"compound string": "CC(C)(C)CC(C)(C)c1ccc(OCCOCC[N+](C)(C)Cc2ccccc2)cc1", "label class": "YES"}
{"compound string": "COC1=CC(=O)C[C@@H](C)[C@]12Oc1c(Cl)c(OC)cc(OC)c1C2=O", "label class": "NO"}
{"compound string": "O=c1ccc2ccccc2o1", "label class": "NO"}
{"compound string": "CC/C(=C(/CC)c1ccc(O)cc1)c1ccc(O)cc1", "label class": "NO"}
{"compound string": "CN(C)/N=N/c1nc[nH]c1C(N)=O", "label class": "NO"}

====

# assay method text: Primary qHTS for inhibitors of nuclear receptor binding SET domain protein 2 (NSD2) in an isogenic RCH-ACV NSD2 p.E1099K mutant (9B) (AID 1645876); note: nearly all actives have a fitted effect of over 70% in size
# assay conditions: RCH-ACV (leukaemia line) NSD2 E1099K (9B) viability, CellTiter-Glo, 72 h; series mostly up to 44.9 µM
Results filed as inconclusive are left out. Active and inactive are the calls of the source. Calls come from the whole dose curve; as a rule, active = well fitted inhibition curve with a large enough effect; inconclusive = small, poorly fitted or top-dose-only effect; inactive = flat fitted curve, though single readings scatter.
Classes used: active, inactive

{"compound string": "CN=C(NC#N)NCCSCc1csc(N=C(N)N)n1", "label class": "inactive"}
{"compound string": "NC(=O)c1cc[n+](CC2=C(C(=O)[O-])N3C(=O)[C@@H](NC(=O)Cc4cccs4)[C@H]3SC2)cc1", "label class": "inactive"}
{"compound string": "Cc1cccn2c(=O)c(-c3nnn[nH]3)cnc12", "label class": "inactive"}
{"compound string": "CCCCC1=NC2(CCCC2)C(=O)N1Cc1ccc(-c2ccccc2-c2nn[nH]n2)cc1", "label class": "inactive"}
{"compound string": "CCCCCCCCCCCCCCCC[N+](C)(C)CCN(Cc1ccc(OC)cc1)c1ncccn1", "label class": "active"}
{"compound string": "CC[C@@H](CO)NCCN[C@@H](CC)CO", "label class": "inactive"}
{"compound string": "O=c1ccc2ccccc2o1", "label class": "inactive"}
{"compound string": "CC[N+](CC)(CCNC(=O)C(=O)NCC[N+](CC)(CC)Cc1ccccc1Cl)Cc1ccccc1Cl", "label class": "inactive"}
{"compound string": "CN(C)C(=S)SC(=S)N(C)C", "label class": "active"}
{"compound string": "Cc1c(N(C)CS(=O)(=O)O)c(=O)n(-c2ccccc2)n1C", "label class": "inactive"}
{"compound string": "CCCCOc1ccc(C(=O)CCN2CCCCC2)cc1", "label class": "active"}

====

# Test system: CP238
# assay method text: qHTS profiling for inhibitors of Plasmodium falciparum proliferation (AID 504749); note: nearly all actives have a fitted effect of over 60% in size
# assay conditions: P. falciparum in erythrocytes, SYBR Green DNA, 72 h; series mostly up to 28.7 µM
Inconclusive results are not listed. Active and inactive are the calls of the source. Calls follow the shape of the dose curve; as a rule, active = well fitted inhibition curve with a large enough effect; inconclusive = small, poorly fitted or top-dose-only effect; inactive = flat fitted curve, though single readings scatter.
Classes used: Yes = active, No = inactive

{"compound": "COc1c2occc2c(OC)c2c(=O)cc(C)oc12", "label class": "No"}
{"compound": "O=C(O)CCCCC(=O)O", "label class": "No"}
{"compound": "CCCCCC=CCC=CCCCCCCCC(=O)OCC", "label class": "No"}
{"compound": "CC(C)COC(=O)OCN1C(=O)CN(CCN2CC(=O)N(COC(=O)OCC(C)C)C(=O)C2)CC1=O", "label class": "No"}
{"compound": "Cc1c(C(C)C)c(=O)n(-c2ccccc2)n1C", "label class": "No"}
{"compound": "CC(C)(C(=O)c1cccnc1)c1cccnc1", "label class": "No"}
{"compound": "CCCCOc1ccc(C(=O)CCN2CCCCC2)cc1", "label class": "No"}
{"compound": "CC(=O)Nc1c(I)cc(I)c(C(=O)O)c1I", "label class": "No"}
{"compound": "Oc1ccc(Cl)cc1Sc1cc(Cl)ccc1O", "label class": "No"}
{"compound": "OCc1ccccc1O", "label class": "No"}
{"compound": "C[C@]12CC[C@@H]3c4ccc(O)cc4CC[C@H]3[C@@H]1CC[C@@H]2O", "label class": "No"}
{"compound": "CN1CCC(=C2c3ccccc3Sc3ccccc32)CC1", "label class": "Yes"}
{"compound": "Cc1ccc(C(=O)C(C)CN2CCCCC2)cc1 (stereo not drawn)", "label class": "No"}
